test: Aqueous solubility, filtration-based method; type: physicochemical; settings: aqueous buffer, kinetic from dmso stock; phosphate-buffered saline pH 7.4, 24 h, 25 °C
MEASURED_ATTRIBUTE: solubility at 24 h (µM)
State just the number; it will be interpreted in µM.

Known solubility at 24 h results, listed for orientation:
# SMILES_STRUCTURE, solubility at 24 h (µM)
data = [
    ("Cn1ncc2c(N3CCC[C@H]3CO)nc(Nc3ccc(F)c(F)c3)nc21", 6.1),
    ("CN(C)c1nc(Nc2ccc(F)c(F)c2)nc2c1cnn2C", 4.8),
    ("CNC(=O)CNc1nc(Nc2ccc(F)c(F)c2)nc2c1cnn2C", 201),
    ("COCCNc1nc(Nc2ccc(F)c(F)c2)nc2c1cnn2C", 23.3),
]

So what's the measured solubility at 24 h for this one? Cc1noc(CNc2nc(Nc3ccc(F)c(F)c3)nc3c2cnn3C)n1 0.72

---

biological target: TcMetRS (Trypanosoma cruzi, UniProt Q4D6H2); test: TcMetRS mode of inhibition studies; type: biochemical; details: Ki, TcMetRS, varied substrate methionine; fit to eq 7, ± SE of fit
Sequence (Q4D6H2 entry or part of it): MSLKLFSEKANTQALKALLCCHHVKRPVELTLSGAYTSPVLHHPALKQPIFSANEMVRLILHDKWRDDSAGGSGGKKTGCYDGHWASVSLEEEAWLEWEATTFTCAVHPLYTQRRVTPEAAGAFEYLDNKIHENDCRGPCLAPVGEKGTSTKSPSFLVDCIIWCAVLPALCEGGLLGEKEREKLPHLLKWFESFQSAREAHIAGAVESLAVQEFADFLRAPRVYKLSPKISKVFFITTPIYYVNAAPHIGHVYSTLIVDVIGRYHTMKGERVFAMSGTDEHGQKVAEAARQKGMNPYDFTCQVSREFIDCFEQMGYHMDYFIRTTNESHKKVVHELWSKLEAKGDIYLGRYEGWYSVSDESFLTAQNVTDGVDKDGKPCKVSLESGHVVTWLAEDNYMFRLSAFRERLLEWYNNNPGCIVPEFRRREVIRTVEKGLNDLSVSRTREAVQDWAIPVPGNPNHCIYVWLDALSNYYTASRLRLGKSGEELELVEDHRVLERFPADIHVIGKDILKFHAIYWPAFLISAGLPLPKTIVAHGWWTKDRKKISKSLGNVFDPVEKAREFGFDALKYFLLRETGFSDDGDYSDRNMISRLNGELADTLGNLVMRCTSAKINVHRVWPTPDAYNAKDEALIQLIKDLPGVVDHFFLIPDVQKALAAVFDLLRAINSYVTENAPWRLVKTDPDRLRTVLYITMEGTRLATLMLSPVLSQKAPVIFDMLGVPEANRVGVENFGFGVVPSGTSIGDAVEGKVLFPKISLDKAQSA
MEASURED_ATTRIBUTE: Ki (µM)
State just the number; it will be interpreted in µM.

So what's the measured Ki for this one? COC(=O)CNc1nc(Nc2ccc(F)c(F)c2)nc2c1cnn2C 10.8

---

IC50 for assorted compounds
biological target: TcMetRS (Trypanosoma cruzi, UniProt Q4D6H2); assay: TcMetRS BIOMOL Green biochemical assay, 10-point dose response; conditions: 50 μM methionine, 100 μM ATP, 80 nM TcMetRS; read-out: TcMetRS pIC50 (converted)

So what's the measured IC50 for this one? Cn1ncc2c(NCCO)nc(NC3CCCCC3)nc21 > 100 µM

Follow-up item: COc1cc(Nc2nc(NCCO)c3cnn(C)c3n2)ccc1F > 100 µM

Follow-up item: Cn1ncc2c(N3CCC[C@H]3CO)nc(Nc3ccc(F)c(F)c3)nc21 > 100 µM

---

target: LdMetRS (Leishmania donovani); assay: LdMetRS BIOMOL Green biochemical assay, 10-point dose response; settings: plateau of dose-response curve; 50 μM methionine, 100 μM ATP; read-out: LdMetRS Maximum % Inhibition Plateau
Emax for assorted molecules

Known Emax results, listed for orientation:
# MOLECULE, MEASURED_ATTRIBUTE, OBSERVED_MEASUREMENT
data = [
    ("COC(=O)C1(Nc2nc(Nc3ccc(F)c(F)c3)nc3c2cnn3C)CC1", "Emax", "94.7%"),
    ("Cc1noc(CNc2nc(Nc3ccc(F)c(F)c3)nc3c2cnn3C)n1", "Emax", "68.7%"),
    ("Cn1ncc2c(NCCO)nc(Nc3ccc(F)cc3F)nc21", "Emax", "102%"),
    ("CNc1nc(Nc2ccc(F)c(F)c2)nc2c1cnn2C", "Emax", "98.7%"),
    ("Cn1ncc2c(NCCO)nc(Nc3ccc(F)cc3)nc21", "Emax", "94.2%"),
]

So what's the measured Emax for this one? COC(=O)C(Cc1c[nH]cn1)Nc1nc(Nc2ccc(F)c(F)c2)nc2c1cnn2C (stereo not drawn) 100%

Follow-up item: CN(CCO)c1nc(Nc2ccc(F)c(F)c2)nc2c1cnn2C 69.9%

Follow-up item: CNC(=O)CNc1nc(Nc2ccc(F)c(F)c2)nc2c1cnn2C 68.9%

Follow-up item: Cn1ncc2c(NCCO)nc(Nc3ccc(Cl)cc3)nc21 89.5%

Follow-up item: COCCNc1nc(Nc2ccc(F)c(F)c2)nc2c1cnn2C 99.7%

Follow-up item: Cn1ncc2c(NCCO)nc(Nc3ccc(F)c(F)c3)nc21 98.7%

Follow-up item: COC(=O)[C@@H](CO)Nc1nc(Nc2ccc(F)c(F)c2)nc2c1cnn2C 102%

Follow-up item: Cn1ncc2c(NC3CCCCC3O)nc(Nc3ccc(F)c(F)c3)nc21 (stereo not drawn) 61%

Follow-up item: Cn1ncc2c(N3CCC[C@H]3CO)nc(Nc3ccc(F)c(F)c3)nc21 87.7%

Follow-up item: Cn1ncc2c(NC3CCOCC3)nc(Nc3ccc(F)c(F)c3)nc21 65.4%

Follow-up item: Cn1ncc2c(NCCO)nc(Nc3cccc(F)c3)nc21 83.7%

Follow-up item: COC(=O)[C@H](Nc1nc(Nc2ccc(F)c(F)c2)nc2c1cnn2C)C(C)C 100%

Follow-up item: Cn1ncc2c(NCCO)nc(Nc3cccc(Cl)c3)nc21 94.7%

---

target: TcMetRS (Trypanosoma cruzi); test: TcMetRS BIOMOL Green biochemical assay, 10-point dose response
pIC50: −log10 of the molar value.
MEASURED_ATTRIBUTE: pIC50

# SMILES_STRUCTURE, pIC50
rows = [
    ("COC(=O)CNc1nc(Nc2ccc(F)c(F)c2)nc2c1cnn2C", "< 4.00"),
]

Please tell me: pIC50 of CN(C)c1nc(Nc2ccc(F)c(F)c2)nc2c1cnn2C , system TcMetRS (Trypanosoma cruzi)? < 4.00

---

molecular target: TcMetRS (Trypanosoma cruzi, UniProt Q4D6H2); test: TcMetRS BIOMOL Green biochemical assay, 10-point dose response; settings: 50 μM methionine, 100 μM ATP, 80 nM TcMetRS; tight binding limit likely reached; read-out: TcMetRS IC50
MEASURED_ATTRIBUTE: IC50 (nM)
State just the number; it will be interpreted in nM.

So what's the measured IC50 for this one? O=c1nc(NCCCNCc2cc3c(Cl)cc(Cl)cc3[nH]2)[nH]c2ccccc12 [DDD806905, reference compound] 38

---

target: LdMetRS (Leishmania donovani); assay: LdMetRS BIOMOL Green biochemical assay, 10-point dose response; settings: LdMetRS pIC50, 50 µM ATP and 50 µM methionine
MEASURED_ATTRIBUTE: pIC50
Give only the number. pIC50 is defined as minus log10 of concentration in molar units.

So what's the measured pIC50 for this one? COC(=O)CNc1nc(Nc2ccc(F)c(F)c2)nc2c1cnn2C 5.85

---

Emax for assorted compounds
biological target: TcMetRS (Trypanosoma cruzi, UniProt Q4D6H2); assay: TcMetRS BIOMOL Green biochemical assay, 10-point dose response; details: 50 μM methionine, 100 μM ATP; read-out: TcMetRS Maximum % Inhibition
Remember to put the unit after the number in your answer.

Known Emax results, listed for orientation:
# SMILES_STRUCTURE, Emax
rows = [
    ("Cn1ncc2c(NCCO)nc(N3CCCCC3)nc21", "13.6%"),
    ("COc1cc(Nc2nc(NCCO)c3cnn(C)c3n2)ccc1F", "4.9%"),
]

So what's the measured Emax for this one? CC(C)Nc1nc(NCCO)c2cnn(C)c2n1 6.3%

---

Emax for assorted molecules
molecular target: LdMetRS (Leishmania donovani, UniProt A0A3Q8IBX2); assay: LdMetRS BIOMOL Green biochemical assay, 10-point dose response; conditions: Table 2; 50 μM methionine, 100 μM ATP; read-out: LdMetRS Maximum % Inhibition
Sequence (A0A3Q8IBX2 entry or part of it): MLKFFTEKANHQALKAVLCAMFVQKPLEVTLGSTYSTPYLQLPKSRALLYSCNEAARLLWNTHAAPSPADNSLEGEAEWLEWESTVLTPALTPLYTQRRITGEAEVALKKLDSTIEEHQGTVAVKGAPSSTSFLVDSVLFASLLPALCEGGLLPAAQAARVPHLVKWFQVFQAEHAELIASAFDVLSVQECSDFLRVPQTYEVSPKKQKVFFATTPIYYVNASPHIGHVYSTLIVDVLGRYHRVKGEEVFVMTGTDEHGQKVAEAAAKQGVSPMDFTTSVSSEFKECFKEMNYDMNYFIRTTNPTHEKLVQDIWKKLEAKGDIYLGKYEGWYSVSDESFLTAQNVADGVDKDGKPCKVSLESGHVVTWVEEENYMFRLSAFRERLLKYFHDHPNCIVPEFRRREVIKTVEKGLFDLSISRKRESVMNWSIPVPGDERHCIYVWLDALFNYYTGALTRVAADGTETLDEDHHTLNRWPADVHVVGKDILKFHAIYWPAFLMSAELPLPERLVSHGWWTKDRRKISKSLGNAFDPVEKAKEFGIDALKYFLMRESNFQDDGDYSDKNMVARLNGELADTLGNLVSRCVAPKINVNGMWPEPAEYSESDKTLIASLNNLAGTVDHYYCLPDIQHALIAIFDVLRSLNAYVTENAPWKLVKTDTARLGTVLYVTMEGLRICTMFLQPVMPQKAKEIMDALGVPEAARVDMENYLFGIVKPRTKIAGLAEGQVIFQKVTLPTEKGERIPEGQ
State just the number; it will be interpreted in %.

So what's the measured Emax for this one? Cn1ncc2c(NCCO)nc(N3CCCCC3)nc21 10.8

Follow-up item: CC(C)Cc1cc(Nc2nc(NCCO)c3cnn(C)c3n2)ccc1F 17.1

Follow-up item: Cn1ncc2c(NCCO)nc(NC3CCOCC3)nc21 17.3

Follow-up item: CN(c1cccc(F)c1)c1nc(NCCO)c2cnn(C)c2n1 10.2

Follow-up item: CC(C)Nc1nc(NCCO)c2cnn(C)c2n1 5.3

Follow-up item: Cn1ncc2c(NCCO)nc(NC3CCCCC3)nc21 11.1

Follow-up item: COc1cc(Nc2nc(NCCO)c3cnn(C)c3n2)ccc1F 36.8

Follow-up item: CC(C)Oc1cc(Nc2nc(NCCO)c3cnn(C)c3n2)ccc1F 6.9

---

biological target: TcMetRS (Trypanosoma cruzi, UniProt Q4D6H2); assay: TcMetRS mode of inhibition studies; type: biochemical; details: Ki, TcMetRS, varied substrate ATP; fit to eq 7, ± SE of fit
MEASURED_ATTRIBUTE: Ki
Remember to put the unit after the number in your answer.

Please tell me: Ki of COC(=O)CNc1nc(Nc2ccc(F)c(F)c2)nc2c1cnn2C , system TcMetRS (Trypanosoma cruzi, UniProt Q4D6H2)? 11.3 µM

---

assay: CHI LogD measurement; type: physicochemical; conditions: chromatography (chromatographic hydrophobicity index)
chromatographic logD for assorted compounds
Enter the number alone.

So what's the measured chromatographic logD for this one? Cn1ncc2c(NCCO)nc(Nc3ccc(F)c(F)c3)nc21 1.64

Follow-up item: Cn1ncc2c(NCCO)nc(Nc3cccc(F)c3)nc21 1.48

Follow-up item: Cn1ncc2c(NCCO)nc(Nc3cccc(Cl)c3)nc21 1.82

Follow-up item: Cn1ncc2c(NCCO)nc(Nc3ccc(F)cc3)nc21 1.32

src = paper PMC7294809
